Entry source: patent US5622972A

- ASSAY_NOTES: Cytotoxicity in uninfected HEp-2 cells, single concentration of 200 μM replenished daily for 5 days
- Format: cell-based
- STUDY_CONDITIONS: human, solvent PBS (ribavirin: water)
MEASURED_PROPERTY: cytotoxicity at 120 h, 200 µM (%)
One number for each entry, in %.

> print(dat)
                                   molecule              measured.property  unit.info  experimental.result
1  CCCCN1CC(OC(C)=O)C(OC(C)=O)C(OC(C)=O)C1COC(C)=O (stereo not shown) [Ex. 7]  cytotoxicity at 120 h, 200 µM          %                   11

I have 3 molecules here; please give me cytotoxicity at 120 h, 200 µM for each one.
1. CCCCN1C[C@H](O)[C@@H](O)[C@H](O)[C@H]1CO [Ex. 6, 1,5-(Butylimino) -1,5-dideoxy-D-glucitol]
2. NC(=O)c1ncn([C@@H]2O[C@H](CO)[C@@H](O)[C@H]2O)n1 [ribavirin]
3. OCC1C(O)C(O)C(O)CN1CCCc1ccccc1 (stereo not shown) [compound 43]

Result ::
[17, 65, 10]
